Read-out: ABC Transporter (ABCC2), ABCC2 (gene 1244)
Test: LTEA_HepaRG_ABCC2: Life Technologies and Expression Analysis (LTEA) Assay for ABC Transporter (ABCC2) using HepaRG (AID 2283464)
Conditions: mRNA level, 48 h; actives raise or lower the signal
The source made the active and inactive calls. Rule for the calls: active = hit-call score of the fitted dose curve at least 0.9, where 1 is the maximum; inactive = score below 0.9.
The categories you may choose from are active, inactive

// return assay outcome for CCC(C)c1ccccc1O (configuration not stated)
inactive

Would you mind telling me which call this test gave CCCCC(CC)C(=O)O (configuration not stated) ?
inactive

Test call for this compound, please: O=C(CCCN1CCC(O)(c2ccc(Cl)cc2)CC1)c1ccc(F)cc1
active

# lookup: test call for OCC(CO)(CBr)CBr
inactive

Give the logged outcome of this assay for the following compound: CCCCC=O
inactive

Please state the recorded outcome for this compound: CS(=O)(=O)c1ccc([C@@H](CC2CCCC2)C(=O)Nc2cnccn2)cc1Cl
inactive

Recorded call for CC(=O)Nc1ccc(O)cc1 ?
inactive

Would you mind telling me which call this test gave CCCCCCCCCCCCCCC ?
inactive

What outcome does the record of this test show for CCCCCCCCCCCCOS(=O)(=O)O ?
active

So what was the verdict on O=C(c1ccccc1)c1ccccc1 in this test?
inactive

Give the logged outcome of this assay for the following compound: CCCCc1oc2ccccc2c1C(=O)c1cc(I)c(OCCN(CC)CC)c(I)c1
active

Per the assay record, what outcome was assigned to CN(Cc1cnc2nc(N)nc(N)c2n1)c1ccc(C(=O)N[C@@H](CCC(=O)O)C(=O)O)cc1 ?
inactive

----------
Assay: CCTE_Shafer_MEA_dev_LDH: CCTE's Lactate Dehydrogenase Assay for Cytotoxicity in the Neural Network Formation Assay, Shafer Lab (AID 2284068);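 note: exposure for twelve days from plating with re-dosing on DIV 5 and 9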
Inconclusive results are not listed. The source made the active and inactive calls. Rule for the calls: active = hit-call score of the fitted dose curve at least 0.9, where 1 is the maximum; inconclusive = response in the unintended direction; inactive = score below 0.9.
recorded-endpoint: AC50

Here is how some molecules turned out for AC50.
# molecule, result
records = [
    ("Nc1ccn([C@@H]2O[C@H](CO)[C@@H](O)C2O)c(=O)n1 (some centres not stated)", "1 µM (active)"),
    ("CC(=O)Nc1ccc(O)cc1", "inactive"),
    ("O=C(O)C(F)(F)OC(F)(F)C(F)(F)OC(F)(F)C(F)(F)OC(F)(F)C(F)(F)C(F)(F)C(F)(F)F", "inactive"),
    ("O=C(CCCN1CCC(O)(c2ccc(Cl)cc2)CC1)c1ccc(F)cc1", "7.35 µM (active)"),
    ("O=C(O)CCC(F)(F)C(F)(F)C(F)(F)C(F)(F)C(F)(F)F", "inactive"),
]

What AC50 value was documented for this molecule, O=P(O)(O)CCC(F)(F)C(F)(F)C(F)(F)C(F)(F)C(F)(F)C(F)(F)C(F)(F)C(F)(F)F ?
8.87 µM (active)

Can you share its AC50? I mean this molecule: O=C1NS(=O)(=O)c2ccccc21
inactive

----------
Read-out: ATP-citrate lyase (ACLY), ACLY (gene 47)
Test: LTEA_HepaRG_ACLY: Life Technologies and Expression Analysis (LTEA) Assay for ATP-citrate lyase (ACLY) using HepaRG (AID 2283466)
Details: mRNA level, 48 h; actives raise or lower the signal
Description: LTEA_HepaRG is a cell based, multiplexed-readout assay that uses HepaRG, a human liver cell line, with measurements taken at 48 hours after chemical dosing on a 96-well plate.LTEA_HepaRG_ACLY is one of 102 assay component(s) measured in the LTEA HepaRG cell culture assay. It is a marker of Steatosis.Data from the assay component LTEA_HepaRG_ACLY was analyzed into 1 endpoint. […]
Activity calls are given as the source filed them. How the source made its calls: active means hit-call score of the fitted dose curve at least 0.9, where 1 is the maximum; inactive means score below 0.9.
// allowed return values: Y = active, N = inactive

Tell me the recorded outcome of this test for CCCCc1oc2ccccc2c1C(=O)c1cc(I)c(OCCN(CC)CC)c(I)c1 .
Y

Answer briefly: the call reported for CN(C)CCOC(c1ccccc1)c1ccccc1 in this assay.
Y

Hi, do you know how CN(Cc1cnc2nc(N)nc(N)c2n1)c1ccc(C(=O)N[C@@H](CCC(=O)O)C(=O)O)cc1 came out in this test?
N

Recorded call for CS(=O)(=O)c1ccc([C@@H](CC2CCCC2)C(=O)Nc2cnccn2)cc1Cl ?
N

Hello, I am checking results. What call was entered for O=C(CCCN1CCC(O)(c2ccc(Cl)cc2)CC1)c1ccc(F)cc1 ?
Y

Fill in: this test's call for O=C(c1ccccc1)c1ccccc1 is ___
N

What did the test return for CC(=O)Nc1ccc(O)cc1 ?
N

Could you check what this test reported for Cc1[nH]nc2c1N=C(c1ccccc1Cl)c1cc([N+](=O)[O-])ccc1N2 ?
N

Hi, do you know how OCC(CO)(CBr)CBr came out in this test?
N

----------
Experiment: ATG_M_32_CIS: Attagene CIS-FACTORIAL HepG2 Assay for M32 Transcription Factor (Internal Marker) (AID 2282949);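 note: background control marker of the multiplexed CIS panel rather than a real target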
Conditions: HepG2 Attagene cis-factorial M32 reporter, mRNA; actives raise or lower the signal
Active and inactive are the calls of the source. How the source made its calls: active means hit-call score of the fitted dose curve at least 0.9, where 1 is the maximum; inactive means score below 0.9.
Answer with one of the outcomes given here: Yes = active, No = inactive

Outcome logged for NCc1cccc(CN)c1 in this assay:
No

What did this assay record as the result for CC(C)c1c(C(=O)Nc2ccccc2)c(-c2ccccc2)c(-c2ccc(F)cc2)n1CC[C@@H](O)C[C@@H](O)CC(=O)O ?
No

Assay result, entry O=C(C=C(O)C(F)(F)F)C(F)(F)F — outcome?
No

Per the records of this test, what outcome belongs to O=C1c2ccccc2C(=O)c2c(O)c(O)cc(O)c21 ?
No

Given CC(O)COc1ccccc1 (stereo not drawn) , state the outcome it received in this test.
No

Status in this test for CC(C)(C)c1ccc(O)c(O)c1 ?
No

Field: outcome | Entry: CCCCC(CC)C(=O)OCCOCCOCCOCCOC(=O)C(CC)CCCC (stereo not drawn)
No

Could you please tell me the result logged for O=C1OC(=O)c2cc(-c3ccc4c(c3)C(=O)OC4=O)ccc21 in this assay?
No

Call for entry Nc1cc(Cl)c(-c2cc(Cl)c(N)cc2Cl)cc1Cl :
No

Answer briefly: the call reported for CCCC=O in this assay.
No

// outcome(item) with item = COC(=O)C(F)(F)C(F)(F)C(F)(F)C(F)(F)C(F)(F)F
No

Hey, what did the test say about CCN(CCC#N)c1ccccc1 ?
No

Look up the recorded call for CCCCCC(C)OC(=O)COc1ccc(Cl)c2cccnc12 (stereo not drawn) in this test.
No

State the result this test recorded for Oc1cc2ccccc2cc1O .
No

# fetch the recorded call for O=C(NCc1ncc(C(F)(F)F)cc1Cl)c1c(Cl)cccc1Cl here
No

// outcome(item) with item = NC(C(F)(F)F)C(F)(F)F
No

Please share the test call associated with Cc1cc(Cc2cc(C)cc(C(C)(C)C)c2O)c(O)c(C(C)(C)C)c1 .
Yes

Which outcome did this test record for the compound CC(C)(C)c1ccc(CCC=O)cc1 ?
No

Hi, do you know how Cc1ccc(C(=O)c2ccccc2)cc1 came out in this test?
No

// return assay outcome for CCOC(=O)c1nc(C(Cl)(Cl)Cl)n(-c2ccc(Cl)cc2Cl)n1
Yes

Hello, I am checking results. What call was entered for O=S(=O)(O)C(F)(F)C(F)(F)C(F)(F)C(F)(F)C(F)(F)C(F)(F)C(F)(F)C(F)(F)C(F)(F)C(F)(F)F ?
No

Test call, this compound: CC1COCc2cc3c(cc21)C(C)(C)C(C)C3(C)C (stereo not drawn)
Yes

Which result was noted for this compound in the test: CCCCCCCCCCCCCCC
No

Could you please tell me the result logged for CCCCCCCCCCCCOC(=O)c1cc(O)c(O)c(O)c1 in this assay?
No

Hi team, can someone confirm the assay call for Cc1cc(C(=C2C=CC(=Nc3ccc(S(=O)(=O)O)cc3)C=C2)c2ccc(Nc3ccc(S(=O)(=O)O)cc3)cc2)cc(S(=O)(=O)O)c1N ?
No

// outcome(item) with item = O=C(O)CN(CCCN(CC(=O)O)CC(=O)O)CC(=O)O
No

In this assay, the call recorded for NCCN was what?
No

What outcome does the record of this test show for Cc1[nH]nc2c1N=C(c1ccccc1Cl)c1cc([N+](=O)[O-])ccc1N2 ?
No

Hey, what did the test say about CCC(=O)C=Cc1ccc(OC)cc1 ?
No

Which result was noted for this compound in the test: COc1cc(OC)nc(NC(=O)NS(=O)(=O)Nc2ccccc2C(=O)N(C)C)n1
No

Outcome? CCCCCCCCCCCCCCCC(=O)OC
No

Returns: the outcome recorded for CCCCCCCCCCCC(=O)O in this assay.
No

For Clc1ccc2c(Cl)ccnc2c1 , which call appears in the assay record?
No

Per the records of this test, what outcome belongs to COC1=CC(=O)C[C@@H](C)[C@]12Oc1c(Cl)c(OC)cc(OC)c1C2=O ?
No

Field: outcome | Entry: Cn1sccc1=O
No

# fetch the recorded call for CC1=CC(=O)c2ccccc2C1=O here
No

Call for entry CCCCC(CC)C(=O)O (stereo not drawn) :
No

Hi, do you know how C=CC(=O)OCCC(F)(F)C(F)(F)C(F)(F)C(F)(F)C(F)(F)C(F)(F)F came out in this test?
No

Record lookup: outcome of this test for CCCCN(C)C ?
No

Identify the outcome logged in this assay for the compound shown: COCC1CCC(CO)CC1 (stereo not drawn)
No

Recorded test call requested for CS(=O)(=O)c1ccc([C@@H](CC2CCCC2)C(=O)Nc2cnccn2)cc1Cl
No

# lookup: test call for CC1CCC(C(=O)O)CC1 (stereo not drawn)
No

What did this assay record as the result for CN(C)c1ccc(C(=C2C=CC(=[N+](C)C)C=C2)c2ccccc2)cc1 ?
No

What was the test verdict on O=C(O)CCC(F)(F)C(F)(F)C(F)(F)C(F)(F)C(F)(F)F ?
No

Dear all, I need the recorded test outcome for C=CC(=O)OCCN(CC)CC , thank you.
No

Lab log entry: CC1CNCC(C)O1 (stereo not drawn) — outcome as called in the assay?
No

I'd appreciate the recorded outcome for FC(F)(F)C(F)(F)C(F)(F)C(F)(F)I from this test.
No

In this assay, the call recorded for C[C@]12CC[C@@H]3c4ccc(O)cc4CC[C@H]3[C@@H]1C[C@@H](O)[C@@H]2O was what?
No

Please let me know the test result on file for CCOCCOCC .
No

Entry O=C1C=CC(=O)N1c1cccc(N2C(=O)C=CC2=O)c1 : call = ?
No

// outcome(item) with item = CC(C)CCOCCC(C)C
No

Given CN(Cc1cnc2nc(N)nc(N)c2n1)c1ccc(C(=O)N[C@@H](CCC(=O)O)C(=O)O)cc1 , state the outcome it received in this test.
No

Record request — test call for CCOC=O
No
